Each recorded value in this set is attributed to ChEMBL document CHEMBL1134337.

Readings of Activity for the listed molecules
tested on: Mus musculus; assay: Antagonism of apomorphine induced climbing was determined in female swiss -Wbster mice after (ip) administration of 80 mg/kg; type: functional

| structure-smiles-string | target-desc | Activity |
| --- | --- | --- |
| OCCOCCN1CCN(C2=Nc3ccccc3Oc3ccccc32)CC1 | Mus musculus | 11 |
| OCCOCCN1CCN(C2=Nc3ccccc3Sc3ccccc32)CC1 | Mus musculus | 0 |
| OCCOCCN1CCN(C2=Nc3cccc(F)c3Sc3ccccc32)CC1 | Mus musculus | 22 |
| CN1CCN(C2=Nc3ccc(F)cc3Sc3ccccc32)CC1 | Mus musculus | 1 |
| OCCOCCN1CCN(C2=Nc3ccc(F)cc3Sc3ccccc32)CC1 | Mus musculus | 2 |
| OCCOCCN1CCN(C2=Nc3cc(Cl)ccc3Cc3ccccc32)CC1 | Mus musculus | 2 |
| OCCOCCN1CCN(C2=Nc3ccccc3Cc3ccccc32)CC1 | Mus musculus | 2 |
| OCCOCCN1CCN(C2=Nc3ccc(O)cc3Cc3ccccc32)CC1 | Mus musculus | 2 |
| OCCOCCN1CCN(C2=Nc3cc(F)ccc3Sc3ccccc32)CC1 | Mus musculus | 6 |
| OCCOCCN1CCN(C2=Nc3cc(Cl)ccc3Sc3ccccc32)CC1 | Mus musculus | 0 |
| OCCOCCN1CCN(C2=Nc3cc(O)ccc3Sc3ccccc32)CC1 | Mus musculus | 24 |
| OCCOCCN1CCN(C2=Nc3cc(Cl)ccc3Cc3sccc32)CC1 | Mus musculus | 3 |

====

system: Mus musculus; assay: Antagonism of apomorphine induced climbing was determined in female swiss -Wbster mice after (ip) administration of 10 mg/kg; format: functional
property-label: Activity

| structure-smiles-string | reported-value |
| --- | --- |
| CN1CCN(C2=Nc3ccc(F)cc3Sc3ccccc32)CC1 | 18 |
| OCCOCCN1CCN(C2=Nc3cc(Cl)ccc3Cc3sccc32)CC1 | 20 |
| OCCOCCN1CCN(C2=Nc3ccc(F)cc3Sc3ccccc32)CC1 | 14 |
| OCCOCCN1CCN(C2=Nc3ccc(O)cc3Sc3ccccc32)CC1 | 27 |
| OCCOCCN1CCN(C2=Nc3cc(Cl)ccc3Sc3ccccc32)CC1 | 20 |

====

// reported Activity for each item listed
tested on: Mus musculus; assay: Antagonism of apomorphine induced climbing was determined in female swiss -Webster mice after (ip) administration of 5 mg/kg; assay type: functional
property-label: Activity

| compound | target-desc | reported-value |
| --- | --- | --- |
| CN1CCN(C2=Nc3ccccc3Sc3ccccc32)CC1 | Mus musculus | 14 |
| c1ccc2c(c1)N=C(N1CCN(CC3COCCO3)CC1)c1ccccc1S2 (stereo unspecified) | Mus musculus | 6 |
| CN1CCN(C2=Nc3ccc(O)cc3Sc3ccccc32)CC1 | Mus musculus | 13 |
| c1ccc2c(c1)N=C(N1CCN(CC3CCCO3)CC1)c1ccccc1S2 (stereo unspecified) | Mus musculus | 21 |
| COC(CO)CN1CCN(C2=Nc3ccccc3Sc3ccccc32)CC1 (stereo unspecified) | Mus musculus | 19 |
| CN1CCN(C2=Nc3ccccc3Cc3ccccc32)CC1 | Mus musculus | 9 |

====

test system: Mus musculus; assay: Antagonism of apomorphine induced climbing was determined in female swiss -Wbster mice after (ip) administration of 20 mg/kg; assay type: functional
property-label: Activity

| compound | target-desc | reported-value |
| --- | --- | --- |
| OCCOCCN1CCN(C2=Nc3cc(F)ccc3Sc3ccccc32)CC1 | Mus musculus | 16 |
| OCCOCCN1CCN(C2=Nc3cc(Cl)ccc3Sc3ccccc32)CC1 | Mus musculus | 12 |
| OCCOCCN1CCN(C2=Nc3cc(Cl)ccc3Cc3ccccc32)CC1 | Mus musculus | 19 |
| CN1CCN(C2=Nc3ccc(F)cc3Sc3ccccc32)CC1 | Mus musculus | 13 |
| OCCOCCN1CCN(C2=Nc3ccccc3Sc3ccccc32)CC1 [QUETIAPINE] | Mus musculus | 15 |
| OCCOCCN1CCN(C2=Nc3cc(Cl)ccc3Oc3ccccc32)CC1 | Mus musculus | 17 |
| OCCOCCN1CCN(C2=Nc3ccc(O)cc3Sc3ccccc32)CC1 | Mus musculus | 5 |
| OCCOCCN1CCN(C2=Nc3ccc(F)cc3Sc3ccccc32)CC1 | Mus musculus | 9 |
| OCCOCCN1CCN(C2=Nc3ccccc3Cc3ccccc32)CC1 | Mus musculus | 21 |
| OCCOCCN1CCN(C2=Nc3cc(Cl)ccc3Cc3sccc32)CC1 | Mus musculus | 1 |
| OCCOCCN1CCN(C2=Nc3ccc(O)cc3Cc3ccccc32)CC1 | Mus musculus | 21 |
